Examples of molecules with documented Basolateral Side 0 min follow.
System: Caco-2 cell monolayer
assay: Caco-2 monolayer transport (bioavailability) study, AB and BA directions
Assay type: in vitro ADME, Homo sapiens
details: BA experiment, donor side, S2 (22 mg/mL GSE), 0 min
Marks after values point to notes of the source that are not given here.

COc1cc(-c2[o+]c3cc(O)cc(O)c3cc2O[C@@H]2O[C@H](CO)[C@@H](O)[C@H](O)[C@H]2O)cc(OC)c1O [M3G, malvidin-3-O-glucoside] = 17.5 ± 0.4 ^a mg/L
COc1cc(C(=O)O)cc(OC)c1O = 1.1 ± 0.1 ^a mg/L

Attention now shifts to the item below.
# get_value(readout='Basolateral Side 0 min', item= COc1cc(-c2[o+]c3cc(O)cc(O)c3cc2O[C@@H]2O[C@H](CO)[C@@H](O)[C@H](O)[C@H]2O)cc(O)c1O [Pet3G, petunidin-3-O-glucoside] )
3.1 ± 0.2 ^a mg/L

----------
Test system: Caco-2 cell monolayer
assay: Caco-2 monolayer transport (bioavailability) study, AB and BA directions
Assay type: in vitro ADME, Homo sapiens
details: BA experiment, donor side, S2 (22 mg/mL GSE), 75 min
Marks after values point to notes of the source that are not given here.
readout kind: Basolateral Side 75 min

Worked set:
O=c1c(O[C@@H]2O[C@H](CO)[C@@H](O)[C@H](O)[C@H]2O)c(-c2ccc(O)cc2)oc2cc(O)cc(O)c12 [K3G, kaempferol-3-glucoside] = 9.5 ± 0.2 ^b mg/L
COc1cc(-c2[o+]c3cc(O)cc(O)c3cc2O[C@@H]2O[C@H](CO)[C@@H](O)[C@H](O)[C@H]2O)cc(OC)c1O [M3G, malvidin-3-O-glucoside] = 16.4 ± 0.4 ^b mg/L
O=C(O)c1cc(O)c(O)c(O)c1 [GA, gallic acid] = 5.7 ± 0.4 ^b mg/L

Attention now shifts to the item below.
# get_value(readout='Basolateral Side 75 min', item= O=C(/C=C/c1ccc(O)c(O)c1)O[C@@H](C(=O)O)[C@@H](O)C(=O)O [CA, caftaric acid] )
1.3 ± 0.1 ^b mg/L

----------
assay: Caco-2 monolayer transport (bioavailability) study, AB and BA directions
Assay type: in vitro ADME, Homo sapiens
details: human, Caco-2; basolateral to apical, S1 (15 mg/mL GSE)
readout kind: Papp B→A at 180 min, 15 mg/mL (×10⁻⁶ cm/s)

O=C(O)c1cc(O)c(O)c(O)c1 [GA, gallic acid] = 1150

[1] O=c1c(O[C@@H]2O[C@H](CO)[C@@H](O)[C@H](O)[C@H]2O)c(-c2ccc(O)cc2)oc2cc(O)cc(O)c12 [K3G, kaempferol-3-glucoside]
[2] O=C(/C=C/c1ccc(O)c(O)c1)O[C@@H](C(=O)O)[C@@H](O)C(=O)O [CA, caftaric acid]
[3] COc1cc(-c2[o+]c3cc(O)cc(O)c3cc2O[C@@H]2O[C@H](CO)[C@@H](O)[C@H](O)[C@H]2O)cc(OC)c1O [M3G, malvidin-3-O-glucoside]
hey, can you rank those compounds up there by Papp B→A at 180 min, 15 mg/mL? biggest number first please // format: requested-order list of labels
1, 2, 3

----------
Tested on: Caco-2 cell monolayer
assay: Caco-2 monolayer transport (bioavailability) study, AB and BA directions
Type: in vitro ADME, Homo sapiens
details: AB experiment, S1 (15 mg/mL GSE), 0 to 180 min
readout kind: reduction in concentration on the apical (donor) side (%)

Worked set:
O=C(/C=C/c1ccc(O)c(O)c1)O[C@@H](C(=O)O)[C@@H](O)C(=O)O = 59
COc1cc(C(=O)O)cc(OC)c1O = 67

[I] COc1cc(-c2[o+]c3cc(O)cc(O)c3cc2O[C@@H]2O[C@H](CO)[C@@H](O)[C@H](O)[C@H]2O)cc(OC)c1O [M3G, malvidin-3-O-glucoside]
[II] O=c1c(O[C@@H]2O[C@H](CO)[C@@H](O)[C@H](O)[C@H]2O)c(-c2ccc(O)cc2)oc2cc(O)cc(O)c12 [K3G, kaempferol-3-glucoside]
Determine, for I and II , which has the greater value of reduction in concentration on the apical (donor) side. Response format: the label of the selected entry.
I

----------
Test system: Caco-2 cell monolayer
assay: Caco-2 monolayer transport (bioavailability) study, AB and BA directions
Type: in vitro ADME, Homo sapiens
details: AB experiment, acceptor side, S1 (15 mg/mL GSE), 180 min
Marks after values point to notes of the source that are not given here.
readout kind: Basolateral Side 180 min

Worked set:
O=C(O)c1cc(O)c(O)c(O)c1 = 9.4 ± 0.9 ^b mg/L
O=C(/C=C/c1ccc(O)c(O)c1)O[C@@H](C(=O)O)[C@@H](O)C(=O)O = 0.07 ± 0.01 ^c mg/L

# get_value(readout='Basolateral Side 180 min', item= O=c1c(O[C@@H]2O[C@H](CO)[C@@H](O)[C@H](O)[C@H]2O)c(-c2ccc(O)cc2)oc2cc(O)cc(O)c12 [K3G, kaempferol-3-glucoside] )
7.4 ± 0.1 ^c mg/L

----------
assay: Caco-2 monolayer transport (bioavailability) study, AB and BA directions
Type: in vitro ADME, Homo sapiens
details: human, Caco-2, text statement, S1 and S2
Examples of molecules with documented efflux ratio at 180 min follow.

O=C(/C=C/c1ccc(O)c(O)c1)O[C@@H](C(=O)O)[C@@H](O)C(=O)O [CA, caftaric acid] = > 1
O=C(O)c1cc(O)c(O)c(O)c1 [GA, gallic acid] = < 1

# get_value(readout='efflux ratio at 180 min', item= O=c1c(O[C@@H]2O[C@H](CO)[C@@H](O)[C@H](O)[C@H]2O)c(-c2ccc(O)cc2)oc2cc(O)cc(O)c12 [K3G, kaempferol-3-glucoside] )
> 1

----------
Examples of molecules with documented Apical Side 75 min follow.
Tested on: Caco-2 cell monolayer
assay: Caco-2 monolayer transport (bioavailability) study, AB and BA directions
Type: in vitro ADME, Homo sapiens
details: BA experiment, acceptor side, S2 (22 mg/mL GSE), 75 min
Marks after values point to notes of the source that are not given here.

Worked set:
COc1cc(-c2[o+]c3cc(O)cc(O)c3cc2O[C@@H]2O[C@H](CO)[C@@H](O)[C@H](O)[C@H]2O)cc(OC)c1O [M3G, malvidin-3-O-glucoside] = 0.18 ± 0.01 ^b mg/L
O=C(O)c1cc(O)c(O)c(O)c1 = 8.3 ± 0.5 ^a,b mg/L

# get_value(readout='Apical Side 75 min', item= `O=C(/C=C/c1ccc(O)c(O)c1)O[C@@H](C(=O)O)[C@@H](O)C(=O)O` )
0.08 ± 0.01 ^a,b mg/L

# get_value(readout='Apical Side 75 min', item= O=c1c(O[C@@H]2O[C@H](CO)[C@@H](O)[C@H](O)[C@H]2O)c(-c2ccc(O)cc2)oc2cc(O)cc(O)c12 [K3G, kaempferol-3-glucoside] )
6.8 ± 0.2 ^a,b mg/L

# get_value(readout='Apical Side 75 min', item= O=c1c(O[C@@H]2O[C@H](CO)[C@@H](O)[C@H](O)[C@H]2O)c(-c2ccc(O)c(O)c2)oc2cc(O)cc(O)c12 [Q3G, quercetin-3-glucoside] )
0.013 ± 0.001 ^b mg/L

----------
Examples of compounds with documented Apical Side 180 min follow.
System: Caco-2 cell monolayer
assay: Caco-2 monolayer transport (bioavailability) study, AB and BA directions
Assay type: in vitro ADME, Homo sapiens
details: AB experiment, donor side, S1 (15 mg/mL GSE), 180 min
Marks after values point to notes of the source that are not given here.

OC[C@H]1O[C@@H](Oc2cc3c(O)cc(O)cc3[o+]c2-c2cc(O)c(O)c(O)c2)[C@H](O)[C@@H](O)[C@@H]1O [D3G, delphinidin-3-O-glucoside] = 1.5 ± 0.1 ^c mg/L
O=c1c(O[C@@H]2O[C@H](CO)[C@@H](O)[C@H](O)[C@H]2O)c(-c2ccc(O)c(O)c2)oc2cc(O)cc(O)c12 [Q3G, quercetin-3-glucoside] = 0.08 ± 0.00 ^c mg/L
O=C(O)c1cc(O)c(O)c(O)c1 = 2.9 ± 0.3 ^d mg/L

# get_value(readout='Apical Side 180 min', item= O=c1c(OC2O[C@H](CO)[C@H](O)[C@H](O)[C@H]2O)c(-c2ccc(O)cc2)oc2cc(O)cc(O)c12 (some centres unmarked) [K3Gal, kaempferol-3-galactoside] )
0.35 ± 0.01 ^c mg/L

# get_value(readout='Apical Side 180 min', item= COc1cc(-c2[o+]c3cc(O)cc(O)c3cc2O[C@@H]2O[C@H](CO)[C@@H](O)[C@H](O)[C@H]2O)cc(O)c1O [Pet3G, petunidin-3-O-glucoside] )
0.9 ± 0.1 ^d mg/L

----------
Tested on: Caco-2 cell monolayer
assay: Caco-2 monolayer transport (bioavailability) study, AB and BA directions
Assay type: in vitro ADME, Homo sapiens
details: AB experiment, donor side, S1 (15 mg/mL GSE), 115 min
Marks after values point to notes of the source that are not given here.
readout kind: Apical Side 115 min

O=c1c(OC2O[C@H](CO)[C@H](O)[C@H](O)[C@H]2O)c(-c2ccc(O)cc2)oc2cc(O)cc(O)c12 (some centres unmarked) [K3Gal, kaempferol-3-galactoside] = 0.39 ± 0.01 ^d mg/L

# get_value(readout='Apical Side 115 min', item= O=c1c(O[C@@H]2O[C@H](CO)[C@@H](O)[C@H](O)[C@H]2O)c(-c2ccc(O)c(O)c2)oc2cc(O)cc(O)c12 [Q3G, quercetin-3-glucoside] )
0.10 ± 0.00 ^d mg/L

# get_value(readout='Apical Side 115 min', item= O=c1c(O[C@@H]2O[C@H](CO)[C@@H](O)[C@H](O)[C@H]2O)c(-c2ccc(O)cc2)oc2cc(O)cc(O)c12 [K3G, kaempferol-3-glucoside] )
6.4 ± 0.2 ^c mg/L

# get_value(readout='Apical Side 115 min', item= COc1cc(-c2[o+]c3cc(O)cc(O)c3cc2O[C@@H]2O[C@H](CO)[C@@H](O)[C@H](O)[C@H]2O)cc(O)c1O [Pet3G, petunidin-3-O-glucoside] )
1.02 ± 0.10 ^c,d mg/L

# get_value(readout='Apical Side 115 min', item= O=C(/C=C/c1ccc(O)c(O)c1)O[C@@H](C(=O)O)[C@@H](O)C(=O)O [CA, caftaric acid] )
0.54 ± 0.07 ^d mg/L
